tested on: A-427; experiment: relative viability (nuclei count vs DMSO), 5 days (fraction); higher = more cells survive; conditions: first compound 0.04 µM
The threshold is 0.8. Values of relative viability beneath it are tagged class 1; values meeting or exceeding it are tagged class 0.

Compound	Qualitative label
COc1cc(N2CCC(C(N)=O)CC2)ccc1Nc1nc(N)c(Cl)c(Nc2ccccc2S(=O)(=O)C(C)C)n1 [HG-5-88-01] + COc1cccc2cc(-c3nc([C@H]4CC[C@H](C(=O)O)CC4)n4ncnc(N)c34)[nH]c12 [OSI-027] (partner 0.5 µM)	class 1
C[C@@H]1CN(CC(=O)Nc2ccc3c(c2)Cc2cccc(-c4cc(=O)cc(N5CCOCC5)o4)c2S3)C[C@H](C)O1 + Cc1nc(Nc2ncc(C(=O)Nc3c(C)cccc3Cl)s2)cc(N2CCN(CCO)CC2)n1 [Dasatinib] (partner 0.075 µM)	class 1
COc1cc(N2CCC(C(N)=O)CC2)ccc1Nc1nc(N)c(Cl)c(Nc2ccccc2S(=O)(=O)C(C)C)n1 [HG-5-88-01] + Cc1nc(NC(=O)N2CCC[C@H]2C(N)=O)sc1-c1ccnc(C(C)(C)C(F)(F)F)c1 [Alpelisib] (partner 2 µM)	class 0
Clc1ccc(Nc2nnc(Cc3ccncc3)c3ccccc23)cc1 [Vatalanib] + CCNC(=O)c1noc(-c2cc(C(C)C)c(O)cc2O)c1-c1ccc(CN2CCOCC2)cc1 [Luminespib] (partner 0.01 µM)	class 0
Clc1ccc(Nc2nnc(Cc3ccncc3)c3ccccc23)cc1 [Vatalanib] + CC(=O)c1c(C)c2cnc(Nc3ccc(N4CCNCC4)cn3)nc2n(C2CCCC2)c1=O [Palbociclib] (partner 0.5 µM)	class 1
C[C@@H]1CN(CC(=O)Nc2ccc3c(c2)Cc2cccc(-c4cc(=O)cc(N5CCOCC5)o4)c2S3)C[C@H](C)O1 + Cc1cc(Nc2cc(N3CCN(C)CC3)nc(Sc3ccc(NC(=O)C4CC4)cc3)n2)n[nH]1 [Tozasertib] (partner 0.1 µM)	class 1

Continue with the compound presented below.
is_below(relative viability, 0.8) for COc1cc(N2CCC(C(N)=O)CC2)ccc1Nc1nc(N)c(Cl)c(Nc2ccccc2S(=O)(=O)C(C)C)n1 [HG-5-88-01] + C[C@@H](Oc1cc(-c2cnn(C3CCNCC3)c2)cnc1N)c1c(Cl)ccc(F)c1Cl [Crizotinib] (partner 1 µM) ?
class 0

* * *

tested on: PC-3 [JPC-3]; assay: relative viability (nuclei count vs DMSO), 5 days (fraction); higher = more cells survive; conditions: first compound 0.3162 µM
Recorded endpoint: relative viability

Compound	relative viability
CC(C)Oc1cc(Nc2nc(N[C@@H](C)c3ccc(F)cn3)ncc2Cl)n[nH]1 [AZ23] + Nc1ncn([C@H]2C[C@H](O)[C@@H](CO)O2)c(=O)n1 [Decitabine] (partner 2 µM)	0.885

So, CC(C)Oc1cc(Nc2nc(N[C@@H](C)c3ccc(F)cn3)ncc2Cl)n[nH]1 [AZ23] + C[C@@H](Oc1cc(-c2cnn(C3CCNCC3)c2)cnc1N)c1c(Cl)ccc(F)c1Cl [Crizotinib] (partner 1 µM) ? Its relative viability was 0.91

According to the records, this compound CC(C)Oc1cc(Nc2nc(N[C@@H](C)c3ccc(F)cn3)ncc2Cl)n[nH]1 [AZ23] + C[C@]1(O)C[C@@H](c2nc(-c3ccc4ccc(-c5ccccc5)nc4c3)c3c(N)nccn32)C1 [Linsitinib] (partner 1 µM) displays relative viability of 0.973

Note to self: relative viability recorded for CC(C)Oc1cc(Nc2nc(N[C@@H](C)c3ccc(F)cn3)ncc2Cl)n[nH]1 [AZ23] + CS(=O)(=O)CCNCc1ccc(-c2ccc3ncnc(Nc4ccc(OCc5cccc(F)c5)c(Cl)c4)c3c2)o1 [Lapatinib] (partner 2 µM) was 0.454

* * *

tested on: EMC-BAC-2; assay: relative viability (nuclei count vs DMSO), 5 days (fraction); higher = more cells survive; conditions: first compound 2.53 µM
Recorded endpoint: relative viability
Give the figure by itself; no unit, no explanation.

Some solved entries appear below for comparison.
Compound	System	relative viability
CCCCCCCCCCCC1=C(O)C(=O)C=C(O)C1=O [Embelin] + Nc1ncn([C@H]2C[C@H](O)[C@@H](CO)O2)c(=O)n1 [Decitabine] (partner 2 µM)	EMC-BAC-2	0.958
CCCCCCCCCCCC1=C(O)C(=O)C=C(O)C1=O [Embelin] + Cc1nc(Nc2ncc(C(=O)Nc3c(C)cccc3Cl)s2)cc(N2CCN(CCO)CC2)n1 [Dasatinib] (partner 0.075 µM)	EMC-BAC-2	0.341
CCCCCCCCCCCC1=C(O)C(=O)C=C(O)C1=O [Embelin] + COc1cc2c(Oc3ccc(NC(=O)C4(C(=O)Nc5ccc(F)cc5)CC4)cc3F)ccnc2cc1OCCCN1CCOCC1 [Foretinib] (partner 0.25 µM)	EMC-BAC-2	0.973
CCCCCCCCCCCC1=C(O)C(=O)C=C(O)C1=O [Embelin] + CS(=O)(=O)CCNCc1ccc(-c2ccc3ncnc(Nc4ccc(OCc5cccc(F)c5)c(Cl)c4)c3c2)o1 [Lapatinib] (partner 2 µM)	EMC-BAC-2	0.926
CCCCCCCCCCCC1=C(O)C(=O)C=C(O)C1=O [Embelin] + O=C(c1cc(Cc2n[nH]c(=O)c3ccccc23)ccc1F)N1CCN(C(=O)C2CC2)CC1 [Olaparib] (partner 8 µM)	EMC-BAC-2	0.453

The compound CCCCCCCCCCCC1=C(O)C(=O)C=C(O)C1=O [Embelin] + Nc1nc2[nH]cc(CCc3ccc(C(=O)N[C@@H](CCC(=O)O)C(=O)O)cc3)c2c(=O)[nH]1 [Pemetrexed] (partner 0.2 µM) showed relative viability equal to 0.399

Form: compound = CCCCCCCCCCCC1=C(O)C(=O)C=C(O)C1=O [Embelin] + Cc1nc(NC(=O)N2CCC[C@H]2C(N)=O)sc1-c1ccnc(C(C)(C)C(F)(F)F)c1 [Alpelisib] (partner 2 µM) ; relative viability = 0.792

* * *

system: NCI-H1666; assay: relative viability (nuclei count vs DMSO), 5 days (fraction); higher = more cells survive; conditions: first compound 0.03162 µM
Recorded endpoint: relative viability
Quick one: just the number, no unit, thanks!

Compound	System	relative viability
CC(C)Oc1cc(Nc2nc(N[C@@H](C)c3ccc(F)cn3)ncc2Cl)n[nH]1 [AZ23] + O=C(CCCCCCC(=O)Nc1ccccc1)NO [Vorinostat] (partner 1 µM)	NCI-H1666	0.977
CC(C)Oc1cc(Nc2nc(N[C@@H](C)c3ccc(F)cn3)ncc2Cl)n[nH]1 [AZ23] + CC(=O)Nc1cccc(-n2c(=O)n(C3CC3)c(=O)c3c(Nc4ccc(I)cc4F)n(C)c(=O)c(C)c32)c1 [Trametinib] (partner 0.02 µM)	NCI-H1666	0.847
CC(C)Oc1cc(Nc2nc(N[C@@H](C)c3ccc(F)cn3)ncc2Cl)n[nH]1 [AZ23] + Nc1nc2[nH]cc(CCc3ccc(C(=O)N[C@@H](CCC(=O)O)C(=O)O)cc3)c2c(=O)[nH]1 [Pemetrexed] (partner 0.2 µM)	NCI-H1666	0.837

# relative viability of CC(C)Oc1cc(Nc2nc(N[C@@H](C)c3ccc(F)cn3)ncc2Cl)n[nH]1 [AZ23] + CS(=O)(=O)N1CCN(Cc2cc3nc(-c4cccc5[nH]ncc45)nc(N4CCOCC4)c3s2)CC1 [Pictilisib] (partner 1 µM) = 0.559

* * *

test system: NCI-H1792; experiment: relative viability (nuclei count vs DMSO), 5 days (fraction); higher = more cells survive; details: first compound 0.01 µM
A collection of compounds and their measured relative viability

Compound	relative viability
CC(C)Oc1cc(Nc2nc(N[C@@H](C)c3ccc(F)cn3)ncc2Cl)n[nH]1 [AZ23] + CS(=O)(=O)CCNCc1ccc(-c2ccc3ncnc(Nc4ccc(OCc5cccc(F)c5)c(Cl)c4)c3c2)o1 [Lapatinib] (partner 2 µM)	1.17

Next, consider the following compound.
Record CC(C)Oc1cc(Nc2nc(N[C@@H](C)c3ccc(F)cn3)ncc2Cl)n[nH]1 [AZ23] + Cc1nc(NC(=O)N2CCC[C@H]2C(N)=O)sc1-c1ccnc(C(C)(C)C(F)(F)F)c1 [Alpelisib] (partner 2 µM) . Reported relative viability: 1.08

* * *

Entries and their relative viability
test system: NCI-H838; assay: relative viability (nuclei count vs DMSO), 5 days (fraction); higher = more cells survive; conditions: first compound 0.04 µM
Give only the figure.

Molecule	relative viability
C[C@@H]1CN(CC(=O)Nc2ccc3c(c2)Cc2cccc(-c4cc(=O)cc(N5CCOCC5)o4)c2S3)C[C@H](C)O1 + CS(=O)(=O)N1CCN(Cc2cc3nc(-c4cccc5[nH]ncc45)nc(N4CCOCC4)c3s2)CC1 [Pictilisib] (partner 1 µM)	0.472
Clc1ccc(Nc2nnc(Cc3ccncc3)c3ccccc23)cc1 [Vatalanib] + O=C(c1cc(Cc2n[nH]c(=O)c3ccccc23)ccc1F)N1CCN(C(=O)C2CC2)CC1 [Olaparib] (partner 8 µM)	0.774
C[C@@H]1CN(CC(=O)Nc2ccc3c(c2)Cc2cccc(-c4cc(=O)cc(N5CCOCC5)o4)c2S3)C[C@H](C)O1 + N=C(N)NC(=N)NCCc1ccccc1 [Phenformin] (partner 250 µM)	0.527

Consider C[C@@H]1CN(CC(=O)Nc2ccc3c(c2)Cc2cccc(-c4cc(=O)cc(N5CCOCC5)o4)c2S3)C[C@H](C)O1 + C[C@]1(O)C[C@@H](c2nc(-c3ccc4ccc(-c5ccccc5)nc4c3)c3c(N)nccn32)C1 [Linsitinib] (partner 1 µM) . Its measured relative viability is 0.931

Source listed as the supplement of paper PMC10307832.
